# credit: patent US20230183352A1

molecular target: T1, Claudin 18.2 (CLDN18.2), expressed on CHOS-CLDN 18.2 / HEK293-CLDN 18.2 / HCC827-CLDN 18.2 cells (human, UniProt P56856-2 1-261); test: FACS, CHOS-CLDN18.2 cells, 5 µg/ml
T1 construct: whole, on cells; The species is not repeated for the CHOS-CLDN 18.2 cells; also called claudin-18A2
ATTRIBUTE_MEASURED: FACS reading

1) QP14581454 (antibody, human IgG1, kappa, V domains shown, Humanized from QP201202) VH: QVQLVQSGAEVKKPGASVKVSCKASGYTFTNYFVHWVKQAPGQGLEWIGYINPYNDDTKYNEKFKGKATLTRDTSTSTVYMELSSLRSEDTAVYYCLSLRFFAYWGQGTLVTVSS VL: DIVMTQSPDSLAVSLGERATISCKSSQSLLNSGNQKNYLTWYQQKPGQAPKLLIYWASTRESGVPDRFSGSGSGTDFTLTISSVQAEDVAVYFCQNDYSYPLTFGGGTKVEIKR
73700
